Tested on: Vero cells
Settings: Vero cells, MTT assay
Experimental Endpoint: CC50

Solved entries:
[[record]]
molecule = "C=C(C)[C@@H]1CC[C@]2(C(=O)O)CC[C@]3(C)[C@H](CC[C@@H]4[C@@]5(C)CCC(=O)C(C)(C)[C@@H]5CC[C@]43C)[C@@H]12"
reported_value = "61.9 µM"

[[record]]
molecule = "CCc1c2c(nc3ccccc13)-c1cc3c(c(=O)n1C2)COC(=O)[C@]3(O)CC"
reported_value = "> 100 µM"

[[record]]
molecule = "C=CC(C)(C)c1cc(/C=C/C(=O)c2ccc(O)cc2)c(OC)cc1O"
reported_value = "> 100 µM"


Please give the measured CC50 for this molecule: COc1cc(/C=C/c2ccc(O)c(O)c2)cc(OC)c1 [3′-Hydroxypterostilbene]
> 100 µM
